Attribution: PubChem BioAssay (NCI)

Below, each of the compounds is paired with its reported growth value.
Test system: MALME-3M melanoma
Assay: NCI-60 one-dose screen, 48 h (100 = growth as untreated, 0 = no growth, -100 = all killed)
Settings: 10 µM unless noted
About 83,000 compounds went through this panel and 20% of them were active in at least one assay; those are over-represented in the sample as a whole.
property label: growth (%)

• CCOC(=O)C(Cc1ccc(OC)cc1)C(=O)OCC = 58.1
• N#CSc1c[nH]c2cccc(/C=C/C(=O)/C=C(O)/C=C/c3cccc4[nH]cc(SC#N)c34)c12 = -82.3
• CCOC(=O)C(=CNc1cnc(Nc2ccc(N3CCOCC3)cc2)nc1Oc1ccc(OC)cc1)C(=O)OCC = 39
• CC(C)(C)n1cc(-c2ccnc(NCCCNS(=O)(=O)c3ccc(C(F)(F)F)cc3)c2)c(-c2cccc(F)c2)n1 = 105
• CC(C)(C)n1cc(-c2ccnc(NCCNS(=O)(=O)c3ccc(O)cc3)c2)c(-c2cccc(O)c2)n1 = 96.9
• COc1ccc2c(c1)CCc1[nH]nc(-c3cc(OC)c(OC)c(OC)c3)c1-2 = 69.8
• COc1cccc(-c2cc(-c3cccc(Cl)c3)c(C#N)c(=O)[nH]2)c1 = 69.8
• CC1=CCC(OC(=O)C(C)(C)CC(O)(C(C)O)C(O)C2(C)C=CC(Cc3ccc(C(C)C)cc3)(C(C)C)CC2)(C(C)C)CC1 (stereo not drawn) = 92.2
• O=C(CC(=O)Nc1cccc(C(=O)O)c1)Nc1cccc(C(=O)O)c1 = 104
• C=C1C(=O)O[C@H]2[C@H]1CC/C(COC(=O)/C=C/C(=O)OC/C1=C/CC[C@@]3(C)O[C@H]3[C@H]3OC(=O)C(=C)[C@@H]3CC1)=C\CC[C@@]1(C)O[C@@H]21 = -27.3
• CCCCCN(CCCCC)CC(O)c1cc(C)c2ccc3cc(C(C)C)ccc3c2c1 (stereo not drawn) = 53.9
• O=C(CCl)NNc1nccc(Nc2ccc(S(=O)(=O)Nc3ccncc3)cc2)n1 = 32.2
• CNCc1cccc2c1OCCOCCOCCNS(=O)(=O)c1ccc(cc1)-c1cnc(N)c(n1)C(=O)N2 = 29.9
• CN(Cc1cnc2nc(N)nc(N)c2n1)c1ccc(C(=O)NC(CCC(=O)O)C(=O)O)cc1Br (stereo not drawn) = 98.1
• N#CC1=C(N)Oc2ccc3ccccc3c2C1c1ccc([N+](=O)[O-])cc1 (stereo not drawn) = 51.4
• Cn1c(=O)c2[nH]c(SCC(=O)Nc3ccc(C(=O)/C=C/c4ccccc4Cl)cc3)nc2n(C)c1=O = 112
• COC(=O)CC[C@@H]1O[C@@H](c2ccc(F)cc2)[C@@H](O)[C@H]1O = 101
• CC1(C)N=C(N)N=C(N)N1c1ccc(CCCCc2ccccc2)c(Cl)c1 = 52.2
